# study-system: Receptor tyrosine-protein kinase erbB-4 (Homo sapiens) (UniProt Q15303);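 further: values are averaged percent inhibition of ERBB4 kinase activity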
# Sequence (Q15303 whole entry): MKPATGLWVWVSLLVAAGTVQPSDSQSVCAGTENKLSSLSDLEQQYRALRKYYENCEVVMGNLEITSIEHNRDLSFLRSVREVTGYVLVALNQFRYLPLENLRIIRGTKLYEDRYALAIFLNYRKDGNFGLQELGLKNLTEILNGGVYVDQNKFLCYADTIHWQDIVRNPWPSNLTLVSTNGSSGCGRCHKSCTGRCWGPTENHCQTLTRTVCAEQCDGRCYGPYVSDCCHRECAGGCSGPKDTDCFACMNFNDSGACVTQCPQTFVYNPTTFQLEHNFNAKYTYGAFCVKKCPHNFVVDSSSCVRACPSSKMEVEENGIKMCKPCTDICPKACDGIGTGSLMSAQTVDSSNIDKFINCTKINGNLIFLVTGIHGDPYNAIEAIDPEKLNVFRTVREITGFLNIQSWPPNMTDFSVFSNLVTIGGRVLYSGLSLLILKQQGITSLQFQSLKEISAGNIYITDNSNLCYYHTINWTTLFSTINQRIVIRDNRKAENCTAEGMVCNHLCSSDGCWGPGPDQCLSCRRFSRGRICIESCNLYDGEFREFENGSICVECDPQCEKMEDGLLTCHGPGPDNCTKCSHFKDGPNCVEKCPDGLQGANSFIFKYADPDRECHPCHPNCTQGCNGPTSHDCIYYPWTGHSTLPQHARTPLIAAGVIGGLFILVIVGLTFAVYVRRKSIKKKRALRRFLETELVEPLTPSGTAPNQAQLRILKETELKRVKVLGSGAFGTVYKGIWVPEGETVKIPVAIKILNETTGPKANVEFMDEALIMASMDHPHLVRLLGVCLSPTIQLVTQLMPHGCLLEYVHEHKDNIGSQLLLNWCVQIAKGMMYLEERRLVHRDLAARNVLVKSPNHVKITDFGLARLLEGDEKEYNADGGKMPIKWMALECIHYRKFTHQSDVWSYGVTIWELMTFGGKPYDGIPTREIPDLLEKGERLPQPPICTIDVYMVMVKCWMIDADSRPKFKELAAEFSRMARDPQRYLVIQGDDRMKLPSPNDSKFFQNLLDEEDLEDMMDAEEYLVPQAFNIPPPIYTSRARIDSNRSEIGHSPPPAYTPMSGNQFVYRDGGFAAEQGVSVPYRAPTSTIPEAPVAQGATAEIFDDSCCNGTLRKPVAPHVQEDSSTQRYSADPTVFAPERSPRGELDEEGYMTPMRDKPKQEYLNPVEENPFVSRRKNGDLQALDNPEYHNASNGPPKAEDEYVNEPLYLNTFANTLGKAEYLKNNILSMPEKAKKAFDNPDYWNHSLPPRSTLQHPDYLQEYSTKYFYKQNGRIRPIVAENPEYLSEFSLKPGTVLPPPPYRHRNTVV
# test-parameters: at 0.1 µM
observation-type: inhibition (%)

structure=c1ccc(-c2nc3n(c2-c2ccc4c(c2)OCO4)CCC3)nc1 observation_type=inhibition unit_of_measurement=% reported_value=3.67
structure=CC(=O)Nc1cccc(C#Cc2cncnc2Nc2ccc(OCc3cccc(F)c3)c(Cl)c2)c1 observation_type=inhibition unit_of_measurement=% reported_value=20.5
structure=CN1CCC(n2cnc(-c3ccc(F)cc3)c2-c2ccnc(N)n2)CC1 observation_type=inhibition unit_of_measurement=% reported_value=8.28
structure=NS(=O)(=O)c1ccc(N/N=C2\C(=O)Nc3ccc4ncccc4c32)cc1 observation_type=inhibition unit_of_measurement=% reported_value=11.4
structure=Clc1ccc(-c2nn3ncccc3c2-c2ccnc(Nc3ccccc3)n2)cc1 observation_type=inhibition unit_of_measurement=% reported_value=27.9
structure=Fc1ccc(-c2nn3ccccc3c2-c2ccncc2)cc1 observation_type=inhibition unit_of_measurement=% reported_value=10.8
structure=O=C(O[C@H]1CN[C@H](C#Cc2cc3ncnc(Nc4ccc(Cc5ccccc5)cc4)c3s2)C1)N1CCOCC1 observation_type=inhibition unit_of_measurement=% reported_value=112
structure=Nc1ncc(-c2cccc(S(N)(=O)=O)c2)c2scc(-c3ccc(F)c(Cl)c3)c12 observation_type=inhibition unit_of_measurement=% reported_value=13.2
structure=COc1cc(Nc2nccc(Nc3ccc4c(C)n[nH]c4c3)n2)cc(OC)c1OC observation_type=inhibition unit_of_measurement=% reported_value=11.9
structure=Fc1ccc(-c2cc(-c3c[nH]nc3-c3ccccn3)ccn2)cc1 observation_type=inhibition unit_of_measurement=% reported_value=8.5

----------
# study-system: Serine/threonine-protein kinase Nek2 (Homo sapiens) (UniProt P51955);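 further: reported values are mean percent inhibition of NEK2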
# Sequence (P51955 whole entry): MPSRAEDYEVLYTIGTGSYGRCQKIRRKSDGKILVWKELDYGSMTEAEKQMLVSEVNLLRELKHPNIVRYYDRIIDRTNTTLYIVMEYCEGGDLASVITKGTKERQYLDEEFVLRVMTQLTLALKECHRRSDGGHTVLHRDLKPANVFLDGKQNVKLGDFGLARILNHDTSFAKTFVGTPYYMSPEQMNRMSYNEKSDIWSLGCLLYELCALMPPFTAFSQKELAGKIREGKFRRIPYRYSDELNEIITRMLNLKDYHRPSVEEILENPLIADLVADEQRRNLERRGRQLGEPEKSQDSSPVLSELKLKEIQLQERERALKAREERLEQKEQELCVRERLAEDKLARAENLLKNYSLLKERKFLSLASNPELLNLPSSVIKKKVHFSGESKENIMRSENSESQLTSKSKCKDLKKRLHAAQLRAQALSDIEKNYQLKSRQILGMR
# test-parameters: at 1 µM
observation-type: inhibition (%)

structure=COc1ccc2[nH]c3c4[nH]c5ccc(OC)cc5c4c4c(c3c2c1)C(=O)NC4=O reported_value=5.74
structure=CCn1cc(-c2ccnc3[nH]ccc23)c(-c2cccc(NC(=O)Nc3ccc(OCc4ccccc4)cc3)c2)n1 reported_value=-1.01
structure=N#Cc1c(NC(=O)c2ccc(F)cc2)sc2c1CCCC2 reported_value=1.31
structure=c1cc(-c2cnn3nc(N4CCOCC4)ccc23)nc(NC2CC2)n1 reported_value=4.05
structure=CNC(=O)c1cncc(/C=C/c2ccccc2Cl)c1 reported_value=-0.78
structure=NS(=O)(=O)c1ccc(Nc2ncc(-c3ccccc3)o2)cc1 reported_value=4.17
structure=COc1ccc2c(-c3ccnc(Nc4cccc(OC(F)(F)F)c4)n3)cnn2n1 reported_value=4.77
structure=c1ccc(-c2nc3n(c2-c2ccc4c(c2)OCO4)CCC3)nc1 reported_value=3.36
structure=c1ccc(COc2ccc(Nc3ncnc4ccc(-c5ccco5)cc34)cc2)cc1 reported_value=0.92
structure=CN(C)CCOc1ccc(-c2nc(-c3ccncc3)c(-c3ccc4c(c3)CC/C4=N\O)[nH]2)cc1 reported_value=4.52

----------
# study-system: Aurora kinase A (Homo sapiens) (UniProt O14965);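 further: each reported value is a mean percent inhibition of Aurora-A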
# Sequence (O14965 whole entry): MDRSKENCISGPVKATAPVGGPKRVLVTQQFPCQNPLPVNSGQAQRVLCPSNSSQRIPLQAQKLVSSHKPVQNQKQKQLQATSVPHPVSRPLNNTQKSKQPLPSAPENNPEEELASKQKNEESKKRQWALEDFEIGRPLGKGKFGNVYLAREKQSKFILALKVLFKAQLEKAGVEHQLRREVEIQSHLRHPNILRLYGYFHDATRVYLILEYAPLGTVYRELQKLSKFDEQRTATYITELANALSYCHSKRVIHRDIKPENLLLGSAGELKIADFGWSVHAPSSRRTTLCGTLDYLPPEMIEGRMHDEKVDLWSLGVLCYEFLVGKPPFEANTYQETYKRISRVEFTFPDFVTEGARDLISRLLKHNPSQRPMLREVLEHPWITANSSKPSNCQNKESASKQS
# test-parameters: at 0.1 µM
In this section we review reported inhibition values for a set of compounds.
observation-type: inhibition

structure=COC(=O)c1sc(-n2cnc3cc(OC)c(OC)cc32)cc1OCc1ccccc1C(F)(F)F observation_type=inhibition reported_value=4.18%
structure=COc1cc2c(cc1Nc1nc(Nc3ccsc3C(N)=O)c3cc[nH]c3n1)N(C(=O)CN(C)C)CCC2(C)C observation_type=inhibition reported_value=3.59%
structure=CCN(CC)S(=O)(=O)c1ccc(OC)c(Nc2ncc(-c3ccccc3)o2)c1 observation_type=inhibition reported_value=1.61%
structure=COc1cc(Nc2nccc(Nc3ccc4c(C)n[nH]c4c3)n2)cc(OC)c1OC observation_type=inhibition reported_value=10.2%
structure=CNC(=O)c1cncc(/C=C/c2ccccc2Cl)c1 observation_type=inhibition reported_value=1.14%
structure=CCNC(=O)O[C@H]1CN[C@H](C#Cc2cc3ncnc(Nc4ccc(OCc5cccc(F)c5)c(Cl)c4)c3s2)C1 observation_type=inhibition reported_value=1.24%
structure=Nc1nc(-c2ccc(F)cc2)c(-c2ccc3ncccc3n2)s1 observation_type=inhibition reported_value=4.14%
structure=CCc1nn2ncccc2c1-c1ccnc(NC2CC2)n1 observation_type=inhibition reported_value=3.98%
structure=Fc1ccc(-c2nn3ccccc3c2-c2ccncc2)cc1 observation_type=inhibition reported_value=1.94%
structure=CNC(=O)c1cc(-c2ccc(F)cc2)cc(-c2ccc(S(=O)(=O)N3CCCC3)cc2)c1N observation_type=inhibition reported_value=0.79%
structure=COc1ccc(-c2oc3ncnc(N)c3c2-c2ccc(NC(=O)Nc3cc(C(F)(F)F)ccc3F)cc2)cc1 observation_type=inhibition reported_value=1.73%
structure=CCn1c(-c2nonc2N)nc2ccccc21 observation_type=inhibition reported_value=2.42%
structure=Cc1ccc(O)cc1Nc1ccnc2cc(-c3ccccn3)ccc12 observation_type=inhibition reported_value=2.82%
structure=COc1ccc(-c2cc3c(N)ncnc3o2)cc1 observation_type=inhibition reported_value=0.51%
structure=CS(=O)(=O)CCNCc1coc(-c2ccc3ncnc(Nc4ccc(OCc5ccccc5)cc4)c3c2)c1 observation_type=inhibition reported_value=2.4%
structure=CS(=O)(=O)CCNCc1ccc(-c2ccc3ncnc(Nc4ccc(OCc5ccccc5)c(C(F)(F)F)c4)c3c2)o1 observation_type=inhibition reported_value=2.91%
structure=CCn1cc(-c2ccnc3[nH]ccc23)c(-c2cccc(NC(=O)Nc3ccc(OCc4ccccc4)cc3)c2)n1 observation_type=inhibition reported_value=2.05%
structure=CCn1c(-c2nonc2N)nc2cnc(Oc3cccc(NC(=O)c4ccc(N(C)C)cc4)c3)cc21 observation_type=inhibition reported_value=6.99%
structure=Fc1cccc(COc2ccc(Nc3ncnc4sc(-c5ccco5)cc34)cc2Cl)c1 observation_type=inhibition reported_value=2.5%
structure=CCn1c(-c2nonc2N)nc2c(C#CC(C)(C)O)ncc(OC3CCNCC3)c21 observation_type=inhibition reported_value=4.24%

----------
# study-system: SRSF protein kinase 1 (Homo sapiens) (UniProt Q96SB4);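 further: reported values are mean percent inhibition of SRPK1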
# Sequence (Q96SB4 whole entry): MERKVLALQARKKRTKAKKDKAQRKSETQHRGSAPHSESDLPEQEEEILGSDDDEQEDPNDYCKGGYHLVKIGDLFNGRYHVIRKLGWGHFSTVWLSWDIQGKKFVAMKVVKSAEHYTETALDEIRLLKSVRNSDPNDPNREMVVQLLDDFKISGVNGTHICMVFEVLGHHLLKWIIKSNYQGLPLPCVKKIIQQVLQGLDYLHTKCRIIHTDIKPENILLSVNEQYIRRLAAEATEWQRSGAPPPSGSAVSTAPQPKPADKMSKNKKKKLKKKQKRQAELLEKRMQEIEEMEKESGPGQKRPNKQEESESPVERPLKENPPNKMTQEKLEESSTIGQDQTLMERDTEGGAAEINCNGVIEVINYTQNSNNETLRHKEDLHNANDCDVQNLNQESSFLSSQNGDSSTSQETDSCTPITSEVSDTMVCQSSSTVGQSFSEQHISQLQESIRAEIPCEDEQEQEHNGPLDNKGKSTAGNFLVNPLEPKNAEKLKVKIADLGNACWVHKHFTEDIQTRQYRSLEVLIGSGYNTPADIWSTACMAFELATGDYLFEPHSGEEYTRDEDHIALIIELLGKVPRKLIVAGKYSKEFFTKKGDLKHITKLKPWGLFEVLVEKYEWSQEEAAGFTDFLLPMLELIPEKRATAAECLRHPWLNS
# test-parameters: at 1 µM
observation-type: inhibition (%)

structure=CCc1nn2ncccc2c1-c1ccnc(NC2CC2)n1 study_system="SRSF protein kinase 1 (Homo sapiens) (UniProt Q96SB4)" observation_type=inhibition unit_of_measurement=% reported_value=-0.37
structure=CCn1cc(-c2ccnc3[nH]ccc23)c(-c2cccc(NC(=O)Nc3ccc(OCc4ccccc4)cc3)c2)n1 study_system="SRSF protein kinase 1 (Homo sapiens) (UniProt Q96SB4)" observation_type=inhibition unit_of_measurement=% reported_value=-4.16
structure=N#Cc1c(NC(=O)c2ccc(F)cc2)sc2c1CCCC2 study_system="SRSF protein kinase 1 (Homo sapiens) (UniProt Q96SB4)" observation_type=inhibition unit_of_measurement=% reported_value=-1.93
structure=CCOc1ccc2c(-c3ccnc(Nc4cccc(C(F)(F)F)c4)n3)cnn2n1 study_system="SRSF protein kinase 1 (Homo sapiens) (UniProt Q96SB4)" observation_type=inhibition unit_of_measurement=% reported_value=-3.22
structure=COC(=O)Nc1nc2ccc(S(=O)(=O)c3ccc(NC(=O)Nc4cc(C(F)(F)F)ccc4F)cc3)cc2[nH]1 study_system="SRSF protein kinase 1 (Homo sapiens) (UniProt Q96SB4)" observation_type=inhibition unit_of_measurement=% reported_value=-4.55
structure=CN(C)CCOc1ccc(-c2nc(-c3ccncc3)c(-c3ccc4c(c3)CC/C4=N\O)[nH]2)cc1 study_system="SRSF protein kinase 1 (Homo sapiens) (UniProt Q96SB4)" observation_type=inhibition unit_of_measurement=% reported_value=-0.41
structure=Fc1ccc(-c2nn3ccccc3c2-c2ccncc2)cc1 study_system="SRSF protein kinase 1 (Homo sapiens) (UniProt Q96SB4)" observation_type=inhibition unit_of_measurement=% reported_value=-2.82
structure=COC(=O)c1sc(-n2cnc3cc(OC)c(OC)cc32)cc1OCc1ccccc1C(F)(F)F study_system="SRSF protein kinase 1 (Homo sapiens) (UniProt Q96SB4)" observation_type=inhibition unit_of_measurement=% reported_value=-6.39
structure=Nc1ncc(-c2cccc(S(N)(=O)=O)c2)c2scc(-c3ccc(F)c(Cl)c3)c12 study_system="SRSF protein kinase 1 (Homo sapiens) (UniProt Q96SB4)" observation_type=inhibition unit_of_measurement=% reported_value=-3.1
structure=CNC(=O)c1cncc(/C=C/c2ccccc2Cl)c1 study_system="SRSF protein kinase 1 (Homo sapiens) (UniProt Q96SB4)" observation_type=inhibition unit_of_measurement=% reported_value=3.33
structure=COc1ccc(-c2cc(-c3c[nH]nc3-c3ccccn3)ccn2)cc1 study_system="SRSF protein kinase 1 (Homo sapiens) (UniProt Q96SB4)" observation_type=inhibition unit_of_measurement=% reported_value=2.7
structure=CCn1c(-c2nonc2N)nc2cnc(Oc3cccc(NC(=O)c4ccc(N(C)C)cc4)c3)cc21 study_system="SRSF protein kinase 1 (Homo sapiens) (UniProt Q96SB4)" observation_type=inhibition unit_of_measurement=% reported_value=-1.86
structure=Clc1ccc(-c2nn3ncccc3c2-c2ccnc(Nc3ccccc3)n2)cc1 study_system="SRSF protein kinase 1 (Homo sapiens) (UniProt Q96SB4)" observation_type=inhibition unit_of_measurement=% reported_value=-1.1
structure=CCN1CCC(CC(=O)Nc2n[nH]c3nnc(-c4cccc(F)c4F)cc23)CC1 study_system="SRSF protein kinase 1 (Homo sapiens) (UniProt Q96SB4)" observation_type=inhibition unit_of_measurement=% reported_value=-3.98
structure=COc1cccc(-c2c[nH]c3c(N/N=C/c4ccncc4)ncnc23)c1 study_system="SRSF protein kinase 1 (Homo sapiens) (UniProt Q96SB4)" observation_type=inhibition unit_of_measurement=% reported_value=-1.68
structure=CCn1c(-c2nonc2N)nc2ccccc21 study_system="SRSF protein kinase 1 (Homo sapiens) (UniProt Q96SB4)" observation_type=inhibition unit_of_measurement=% reported_value=-2.83
structure=COc1cc(Nc2nccc(Nc3ccc4c(C)n[nH]c4c3)n2)cc(OC)c1OC study_system="SRSF protein kinase 1 (Homo sapiens) (UniProt Q96SB4)" observation_type=inhibition unit_of_measurement=% reported_value=-3.51
structure=CCNC(=O)O[C@H]1CN[C@H](C#Cc2cc3ncnc(Nc4ccc(OCc5cccc(F)c5)c(Cl)c4)c3s2)C1 study_system="SRSF protein kinase 1 (Homo sapiens) (UniProt Q96SB4)" observation_type=inhibition unit_of_measurement=% reported_value=-0.8
structure=O=S(=O)(CCNCc1ccc(-c2ccc3ncnc(Nc4ccc(OCc5cccc(F)c5)c(Cl)c4)c3c2)o1)c1ccccc1 study_system="SRSF protein kinase 1 (Homo sapiens) (UniProt Q96SB4)" observation_type=inhibition unit_of_measurement=% reported_value=-1.46
structure=Cc1cccc2c1NC(=O)/C2=N\Nc1ccc(S(N)(=O)=O)cc1 study_system="SRSF protein kinase 1 (Homo sapiens) (UniProt Q96SB4)" observation_type=inhibition unit_of_measurement=% reported_value=-1.02
structure=Nc1nc(-c2ccc(F)cc2)c(-c2ccc3ncccc3n2)s1 study_system="SRSF protein kinase 1 (Homo sapiens) (UniProt Q96SB4)" observation_type=inhibition unit_of_measurement=% reported_value=1.42
